EXPERIMENTAL_PROTOCOL: Therapeutic index, ratio of HC10 for mouse RBC to IC50 for cytotoxicity against human MCF7 cells
Assay type: toxicity, cell-based
ASSAY_CONTEXT: mouse RBC and MCF7 cells, read-out: TI
Residues, ends and D or L forms follow the SMILES beside them.
MEASURED_PROPERTY: selectivity ratio
Give bare numbers.

Take a look at these entries with their results.
Enquiry: Need selectivity ratio of CC(C)C[C@H](NC(=O)[C@H](CCCCN)NC(=O)[C@H](CCCCN)NC(=O)[C@H](CC(C)C)NC(=O)[C@H](CC(C)C)NC(=O)[C@H](CCCCN)NC(=O)[C@H](CCCCN)NC(=O)[C@H](CC(C)C)NC(=O)[C@H](CC(C)C)NC(=O)[C@H](CCCCN)NC(=O)[C@H](CCCCN)NC(=O)[C@H](CC(C)C)NC(=O)[C@@H](N)CC(C)C)C(=O)N[C@@H](CC(=O)O)C(N)=O (H-LLKKLLKKLLKKLD-NH2) , thanks.
Return: 12.2

Enquiry: Need selectivity ratio of CC(C)C[C@H](NC(=O)[C@H](CC(C)C)NC(=O)[C@H](CCCCN)NC(=O)[C@H](CCCCN)NC(=O)[C@H](CC(C)C)NC(=O)[C@H](CC(C)C)NC(=O)[C@H](CCCCN)NC(=O)[C@H](CCC(=O)O)NC(=O)[C@H](CC(C)C)NC(=O)[C@H](CC(C)C)NC(=O)[C@H](CCCCN)NC(=O)[C@H](CCCCN)NC(=O)[C@H](CC(C)C)NC(=O)[C@@H](N)CC(C)C)C(N)=O (H-LLKKLLEKLLKKLL-NH2) , thanks.
Return: 2.1

Enquiry: Need selectivity ratio of CC(C)C[C@H](NC(=O)[C@H](CCCCN)NC(=O)[C@H](CC(C)C)NC(=O)[C@H](CC(C)C)NC(=O)[C@H](CCCCN)NC(=O)[C@H](CCCCN)NC(=O)[C@H](CC(C)C)NC(=O)[C@H](CC(C)C)NC(=O)[C@H](CCCCN)NC(=O)[C@H](CCCCN)NC(=O)[C@H](CC(C)C)NC(=O)[C@H](CC(C)C)NC(=O)[C@H](CCCCN)NC(=O)[C@@H](N)CCCCN)C(N)=O (H-KKLLKKLLKKLLKL-NH2) , thanks.
Return: 6.5

Enquiry: Need selectivity ratio of CC(C)C[C@H](NC(=O)[C@H](CCCCN)NC(=O)[C@H](CC(C)C)NC(=O)[C@H](CC(C)C)NC(=O)[C@H](CCCCN)NC(=O)[C@H](CCCCN)NC(=O)[C@H](CC(C)C)NC(=O)[C@H](CC(C)C)NC(=O)[C@H](CCCCN)NC(=O)[C@H](CCCCN)NC(=O)[C@H](CC(C)C)NC(=O)[C@H](CC(C)C)NC(=O)[C@@H](N)CCCCN)C(N)=O (H-KLLKKLLKKLLKL-NH2) , thanks.
Return: 5.27

Turning to the following compound.
Enquiry: Need selectivity ratio of CC(C)C[C@H](NC(=O)[C@H](CC(C)C)NC(=O)[C@H](CCCCN)NC(=O)[C@H](CCCCN)NC(=O)[C@H](CC(C)C)NC(=O)[C@H](CC(C)C)NC(=O)[C@H](CCCCN)NC(=O)[C@H](CCCCN)NC(=O)[C@H](CC(C)C)NC(=O)[C@H](CCC(=O)O)NC(=O)[C@H](CCCCN)NC(=O)[C@H](CCCCN)NC(=O)[C@H](CC(C)C)NC(=O)[C@@H](N)CC(C)C)C(N)=O (H-LLKKELKKLLKKLL-NH2) , thanks.
Return: 8.02
